Origin of the recorded values: paper PMC7496268

Could you please report measured pIC50 for the items listed next?
- Assay target: hDM2 (Homo sapiens, UniProt Q00987)
- Construct: gene MDM2; 15N-labelled for NMR; the anisotropy footnote prints hDM2_17-25, apparently a misprint of 17-125
- Sequence (Q00987 17-125): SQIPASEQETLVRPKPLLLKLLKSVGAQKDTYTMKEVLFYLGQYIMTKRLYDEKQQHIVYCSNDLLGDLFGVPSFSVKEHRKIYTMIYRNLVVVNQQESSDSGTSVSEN
- Experiment: biochemical
- Parameters: fluorescence anisotropy competition, displacement of fluorescein-labelled p53 15-31 peptide from hDM2
- Details: read-out: FA IC50
One number for each entry, as −log10 of the molar value.

Sample answers from the record:
O=C(CO[C@@H]1CCc2cc(Cl)ccc21)N1CC[C@H](c2ccccc2)C1 = 4.54
O=C(CO[C@H]1CCc2cc(Cl)ccc21)N1CC[C@@H](c2ccccc2)C1 = 4.44
O=C(CO[C@H]1CCc2cc(Cl)ccc21)N1CC[C@H](c2ccccc2)C1 = 4.59

Now let's try a different one.
input: Give pIC50 for the following molecule: `O=C(CO[C@@H]1CCc2cc(Cl)ccc21)N1CC[C@@H](c2ccccc2)C1`
output: 4.55
